Species on record: Homo sapiens
Experiment: In vitro inhibition of Serine protease chymotrypsin
Set-up: unit not given here
valueKind: k obs / 1

chemSmiles | number
CCS(=O)(=O)ON1C(=O)c2ccc(NC(=O)C(=O)OC)cc2C1=O | 5300
CS(=O)(=O)ON1C(=O)c2ccc(NC(=O)/C=C/c3ccccc3)cc2C1=O | 1600
CCS(=O)(=O)ON1C(=O)c2ccc(NC(=O)CCC(=O)OC)cc2C1=O | 9600
CS(=O)(=O)ON1C(=O)c2ccc(N)cc2C1=O | 12000
COC(=O)CCCC(=O)Nc1ccc2c(c1)C(=O)N(OS(C)(=O)=O)C2=O | 6600

(1) CCS(=O)(=O)ON1C(=O)c2ccc(N)cc2C1=O
(2) COC(=O)C(=O)Nc1ccc2c(c1)C(=O)N(OS(C)(=O)=O)C2=O
(3) CS(=O)(=O)ON1C(=O)c2ccc(NC(=O)c3cccc4ccccc34)cc2C1=O
Thanks in advance: please rank these 3 entries by k obs / 1, highest to lowest. Field: ranking. Enter the labels in the order requested.
1, 2, 3
(1: 13000, 2: 5400, 3: 3300)

(1) CS(=O)(=O)ON1C(=O)c2ccc(NC(=O)c3ccccc3)cc2C1=O
(2) CCS(=O)(=O)ON1C(=O)c2ccc(NC(=O)CCCC(=O)OC)cc2C1=O
Please compare: 1 and 2 . Report which one has the smaller k obs / 1 value. Mark your selection by writing its label.
1
(1: 3600, 2: 14000)

(A) CS(=O)(=O)ON1C(=O)c2ccc(NC(=O)CCc3ccccc3)cc2C1=O
(B) Cc1ccc(S(=O)(=O)N[C@@H](Cc2ccccc2)C(=O)Nc2ccc3c(c2)C(=O)N(OS(C)(=O)=O)C3=O)cc1
Please compare: A and B . Report which one has the smaller k obs / 1 value. Mark your selection by writing its label.
A
